test details: soluble fraction after stress (log2 fold change); higher = more stays soluble; pooled small domains, quantitative proteomics
run parameters: stress: pH 4
Label Yes when soluble fraction (log2) >= -0.03; otherwise No.

chain | group label
HMLTAPMPGTIQQILVTKGQKVRSGQTLMILEAMKMEHKIKAPNSGEIISINYSLGNRVEMGANLIEI | Yes
HMSTISPNAFNFLQQNLNKFSDDAEGKMIKDILSKTTYDEYVKNEKSKTDFNSLLRRQTTTGDDNLNRYIN | Yes
HMKELTPEQLQHNWNNLRQFIDVNFSGDRLGGLNKMYDYFEERMMFAPASGKQHYHNAFAGGYVEHVMHV | Yes
HMSKQDRRIRRTRRLLKESLIQLMQEKEFMNISVREVTERADLNRGTFYLHYQDTRHLLQDIENETL | No
HMQRYFINEPVPEDQRLVLPKDIAHHLVDVLRAEQNDELEVALNDQKVYLARLISLNPATVELQSDLG | No
HMSGIESIVIPLKGLDFDMISSTLTPQLKQAIKYDKQSDSIILVGTNAKVNIIAKQVNAMVEVYKLKT | No
HMETAVMPDVMKLDSTTAIQALKDKGFATIETYEVKSDRPAGVVVRQSETADSVVALSKEILLGVSNGADY | Yes
HMTQGIDQISFSQFLDKVQSGEVTDVRISGSDITGTLKTGGKFETVAGNYEKIWDLLRENKVVFVVDSP | No

###

test details: soluble fraction after stress (log2 fold change); higher = more stays soluble; pooled small domains, quantitative proteomics
run parameters: stress: pH 4
soluble fraction (log2) overview

chain | soluble fraction (log2)
HMALYSEQVSEIEKALMSLPPKYQLVMLLLYAEDLKYEQIAEILDEPIGTVKTKIHRARKILKERF | -0.0112
HMSDRESYGRYRNVSLTLSEYESLKNEYPLYADKYIERLSEYMETAGKHYNNHYATILSWLSKDIK | -0.8
HMYQFFVDPGQIQGKRVTITGSDVNHIKNVLRMRIGEEIAVSNGKDGLEYRFGIDEILEDEVIGTLRFVKE | -1.87
HMIKNDIGKFIKLYRETHQWSQRELAEHLGVSQRNVSYYEKGERIPPADVLKKLSTLFDVPVDVLLGLK | -0.274
HMQDTYLYPVQHNGKVRLQVELPAKGLPEDLVRLALAHPKVVEWLNGRIPTKTIAVPGRIINMVLPNQ | 0.18
HMGSNATIKYAIKGDESLVQVAQKFNVTVSELRSWNNISAFENAKTGQELVINVPASKYETYFALANT | -0.0194
HMYLEARVKSTTPILSKPNELGKSLGKLYTNDFVALVSLHKNGLDSYYRTANGGYINAADVVIDRDV | -0.133
HMNDENIIIEEIKYFIKSNQIKEQEKLPSERNLSELFTVSRFSLRKALRHLVDTGYLYVKDKSGYYYQGD | 0.00355

###

test details: soluble fraction after stress (log2 fold change); higher = more stays soluble; pooled small domains, quantitative proteomics
run parameters: stress: pH 4
This listing pairs sequences with measured soluble fraction (log2).

chain | soluble fraction (log2)
HMSINIDEEKKILGPNADQIIKGITTWGQGLVSKGIWSDADFEEFKIFAATGNGINALNKVRKYY | -0.65
HMHSILDDIEGIGPARRKALMRHYMNLDAIKSATVEELAAVPSMNEKSAKAVHNFFHQQKKD | 0.22
HMENFYGYEIINPEAKKFFITMGVNRYALEQWIKNKSEYGLIIVKSLYPFDPRLKLFLEKNRERIQNLIF | -0.305
HMVDDNFGLGEVTDQNYLTVLGRALDLIGWTDEQADSYSLKTFGVPHWDELGRSQAEKLVAHLIGLLKEQM | -0.157
